System: MDA-MB-453
measurement.description: normalised viability (% of control), CellTiter-Blue; higher = more viable cells (about 100 = DMSO control)
protocol.conditions: 3 nM; incubation time: 72 h
measured.property: normalised viability (%)
Value expressed in %; do not type the unit.

# compound, observed
rows = [
    ("COc1cc2c(Oc3ccc(NC(=O)C4(C(=O)Nc5ccc(F)cc5)CC4)cc3F)ccnc2cc1OCCCN1CCOCC1 [Foretinib]", 91.6),
    ("C[C@@H](C(=O)O)c1ccc(-c2ccccc2)c(F)c1 [Tarenflurbil]", 106),
    ("Cn1nnc2c(C(N)=O)ncn2c1=O [Temozolomide]", 112),
    ("CN1CCN(c2nc(C3=C(c4c[nH]c5ccccc45)C(=O)NC3=O)c3ccccc3n2)CC1 [Sotrastaurin]", 102),
    ("O=C(O)CC[C@H]1CC[C@@](c2cc(F)ccc2F)(S(=O)(=O)c2ccc(Cl)cc2)CC1 [MK-0752]", 107),
]

With those in mind, consider the next compound.
### Prompt normalised viability for CC[C@@H]1C(=O)N(C)c2cnc(Nc3ccc(C(=O)N[C@H]4CC[C@H](N5CCN(CC6CC6)CC5)CC4)cc3OC)nc2N1C(C)C [Volasertib] ?
### Response 89.9

###

# normalised response listing for each entry below
System: BT-549
measurement.description: normalised response (% of control), CellTox Green; higher = less cell death (100 = DMSO, 0 = benzethonium chloride kill control)
protocol.conditions: incubation time: 72 h
Answer format: numeric, % implied, no suffix.

Examples from the recorded data:
# compound, system.name, normalised response, %
rows = [
    ("N[C@@H](Cc1ccc(N(CCCl)CCCl)cc1)C(=O)O [Melphalan] (12500 nM)", "BT-549", -143),
    ("Cc1c(C(=O)Nc2ccc(N3C[C@@H](C)O[C@@H](C)C3)nc2)cccc1-c1ccc(OC(F)(F)F)cc1 [Erismodegib] (100 nM)", "BT-549", 104),
    ("CO[C@H]1C[C@@H]2CC[C@@H](C)[C@@](O)(O2)C(=O)C(=O)N2CCCC[C@H]2C(=O)O[C@H]([C@H](C)C[C@@H]2CC[C@@H](O)[C@H](OC)C2)CC(=O)[C@H](C)/C=C(\\C)[C@@H](O)[C@@H](OC)C(=O)[C@H](C)C[C@H](C)/C=C/C=C/C=C/1C [Sirolimus] (100 nM)", "BT-549", 93.7),
    ("CC(C)C(=O)Nc1ccc([N+](=O)[O-])c(C(F)(F)F)c1 [Flutamide] (1000 nM)", "BT-549", 115),
    ("COc1cc2c(N3CCN(C(=O)Nc4ccc(OC(C)C)cc4)CC3)ncnc2cc1OCCCN1CCCCC1 [Tandutinib] (100 nM)", "BT-549", 129),
]

### Prompt Lookup: normalised response / BT-549 / NC(=O)c1cccc2cn(-c3ccc([C@@H]4CCCNC4)cc3)nc12 [MK-4827] (10000 nM)
### Response 103

### Prompt Notebook: pull reported normalised response for BT-549, entry Nc1nc(Cl)nc2c1ncn2[C@@H]1O[C@H](CO)[C@@H](O)[C@@H]1F [Clofarabine] (10000 nM)
### Response 87.3

### Prompt Lab request: please report normalised response under test system BT-549 for COc1cc2c(cc1-c1c(C)noc1C)ncc1[nH]c(=O)n([C@H](C)c3ccccn3)c12 [I-BET151] (1000 nM)
### Response 93.6

### Prompt Could you share what normalised response was measured for CC[C@H](CC#N)OC(=O)N[C@@H](C)c1cccc(NC(=O)Nc2ccc(-c3cnco3)c(OC)c2)c1 [AVN944] (1000 nM) , tested on BT-549?
### Response 127

### Prompt Please tell me: normalised response of O=C(O)CC[C@H]1CC[C@@](c2cc(F)ccc2F)(S(=O)(=O)c2ccc(Cl)cc2)CC1 [MK-0752] (1000 nM) , system BT-549?
### Response 107

### Prompt Record lookup: for BT-549, what normalised response belongs to CO[C@H](C(=O)[C@@H](O)[C@@H](C)O)[C@@H]1Cc2cc3cc(O[C@H]4C[C@@H](O[C@@H]5C[C@@H](O)[C@H](O)[C@@H](C)O5)[C@H](O)[C@@H](C)O4)c(C)c(O)c3c(O)c2C(=O)[C@H]1O[C@H]1C[C@@H](O[C@@H]2C[C@@H](O)[C@@H](O[C@@H]3C[C@](C)(O)[C@H](O)[C@@H](C)O3)[C@@H](C)O2)[C@H](O)[C@@H](C)O1 [Plicamycin] (1000 nM) ?
### Response 107

### Prompt Please tell me: normalised response of CCCc1cc(C)[nH]c(=O)c1CNC(=O)c1cc(-c2ccnc(N3CCN(C)CC3)c2)cc2c1cnn2C(C)C [GSK343] (100 nM) , system BT-549?
### Response 98.5
